conditions: in cyclohexane, 288.15 K
Readout type: solubility (mole fraction)
Number only, no unit.

// lookup solubility (mole fraction) for CC(=O)c1c(C)cc(C(C)(C)C)cc1C
0.48

---

settings: in ethyl acetate, 293.15 K
Readout type: solubility (mole fraction)
The reply should be a number, written without any unit.

Consider the compound CC(=O)c1c(C)cc(C(C)(C)C)cc1C and give its measured solubility (mole fraction).
0.603

---

settings: in acetonitrile, 303.15 K
Readout type: solubility (mole fraction)
Answer using only a numeral; do not append any unit.

solubility (mole fraction) for CC(=O)c1c(C)cc(C(C)(C)C)cc1C ?
0.623

---

details: in cyclohexane, 308.15 K
Readout type: solubility (mole fraction)
Reply with just the number.

Can you look up the measured solubility (mole fraction) of CC(=O)c1c(C)cc(C(C)(C)C)cc1C for me?
0.832

Data provenance: BigSolDB 2.1
